methodDescription: gradient 5% acetonitrile 3 min, to 50% in 2 min, to 85% in 15 min, held 3 min, 100 µL/min
experimentalConditions: column: Zorbax Extend-C18 2.1 x 50 mm; eluents: water / acetonitrile, 0.1% formic acid
measuredEndpoint: RP-LC retention time (s)

Some solved entries appear below for comparison.
O=C(NCC(=O)N1CCn2c1nc1ccccc12)c1ccc(=O)[nH]c1 :: 555
Cn1c(=O)c(N2CCN(C(=O)Cc3ccc(Br)cc3)CC2)nc2cccnc21 :: 938
CCCn1c(=O)sc2cc(S(=O)(=O)N3CCC(C(=O)Nc4cccc(CC)c4)CC3)ccc21 :: 969
CCN1CCN(S(=O)(=O)c2cccc(-c3nc(-c4ccc(C)cc4)no3)c2)CC1 :: 786

(P) CC(C)NC(=O)c1cc2c(n(-c3ccc(C(F)(F)F)cc3)c1=O)CCCC2=O
(Q) Cn1c(=O)c(N2CCN(C(=O)c3cc(Cl)ccc3F)CC2)nc2ccncc21
Req: Pick one, P or Q : lowest reported RP-LC retention time. Respond with the label that goes with your answer.
Resp: Q
(Q: 560 s, P: 883 s)
